# Test system: Amaranthus retroflexus (AMARE)
# protocol-details: Herbicidal post-emergence action (B), 1280 g/ha
# Format: in vivo
# test-settings: rated visually after about 3 weeks vs untreated controls
# herbicidal activity AMARE values compiled below
Number in %, nothing else.

> print(dat)
                                   compound  observed.measurement
1  Cc1cnsc1-c1nc2nc(S)sc2cc1Br [Example I-208]                   100
2  CCc1cc2sc(S)nc2nc1-c1ccccc1C [Example I-158]                    90
3  Cc1ccsc1-c1nc2ncsc2cc1Cl [Example I-192]                   100
4  O=C(O)CNc1nc2nc(-c3ccccc3F)c(Br)cc2s1 [Example I-052]                   100
5  Fc1ccccc1-c1nc2nc(S)sc2cc1Br [Example I-156]                   100
6  Cc1c(Br)c(-c2ccccc2F)nc2ncsc12 [Example I-186]                   100

Let us move to another entry and its herbicidal activity AMARE.
Exam item: GET /values?readout=herbicidal activity AMARE&item= CCc1cc2scnc2nc1-c1ccccc1C(F)(F)F [Example I-049]
Marked response: 100

* * *

# Tested on: Veronica persica (VERPE)
# protocol-details: Herbicidal pre-emergence action (A), 1280 g/ha
# Type: in vivo
# test-settings: visual grading after ca. 3 weeks vs untreated controls
value-type: herbicidal effect VERPE (%)
Number in %, nothing else.

> print(dat)
                    compound  observed.measurement
1  Fc1ccccc1-c1nc2ncsc2cc1Cl                    90

Exam item: GET /values?readout=herbicidal effect VERPE&item= `Cc1cscc1-c1nc2ncsc2cc1C`
Marked response: 90

Exam item: GET /values?readout=herbicidal effect VERPE&item= `C=Cc1cc2scnc2nc1-c1ccccc1F`
Marked response: 100

Exam item: GET /values?readout=herbicidal effect VERPE&item= Cc1cc2sc([S+](C)[O-])nc2nc1-c1ccccc1F (centres unmarked)
Marked response: 90

Exam item: GET /values?readout=herbicidal effect VERPE&item= `Cc1ccccc1-c1nc2ncsc2cc1Cl`
Marked response: 100

Exam item: GET /values?readout=herbicidal effect VERPE&item= `Cc1cc(C)c(-c2nc3ncsc3cc2C)s1`
Marked response: 90

Exam item: GET /values?readout=herbicidal effect VERPE&item= `Fc1cccc(-c2nc3ncsc3cc2Cl)c1F`
Marked response: 100

Exam item: GET /values?readout=herbicidal effect VERPE&item= `Clc1cc2scnc2nc1-c1ccsc1`
Marked response: 100

Exam item: GET /values?readout=herbicidal effect VERPE&item= `CCc1cc2sc(S(C)(=O)=O)nc2nc1-c1ccccc1C`
Marked response: 90

Exam item: GET /values?readout=herbicidal effect VERPE&item= `Cc1cccc(F)c1-c1nc2ncsc2cc1Cl`
Marked response: 90

Exam item: GET /values?readout=herbicidal effect VERPE&item= `Cc1cc2scnc2nc1-c1sccc1Cl`
Marked response: 100

Exam item: GET /values?readout=herbicidal effect VERPE&item= `Fc1ccccc1-c1nc2ncsc2cc1I`
Marked response: 90

* * *

# Test system: Kochia scoparia (KCHSC; Bassia scoparia)
# protocol-details: Herbicidal pre-emergence action (A), 1280 g/ha
# Format: in vivo
# test-settings: visual grading after ca. 3 weeks vs untreated controls
# herbicidal effect KCHSC values compiled below
Number in %, nothing else.

Known herbicidal effect KCHSC results, listed for orientation:
> print(dat)
                          compound                             target.entity  observed.measurement
1     Fc1cccc(-c2nc3ncsc3cc2Cl)c1F  Kochia scoparia (KCHSC; Bassia scoparia)                    90
2     Cc1cc(-c2nc3ncsc3cc2C)c(C)s1  Kochia scoparia (KCHSC; Bassia scoparia)                    90
3     COc1ccccc1-c1nc2nc(S)sc2cc1C  Kochia scoparia (KCHSC; Bassia scoparia)                    90
4          Cc1cc2scnc2nc1-c1ccsc1C  Kochia scoparia (KCHSC; Bassia scoparia)                   100
5  Cc1cc2scnc2nc1-c1ccccc1C(F)(F)F  Kochia scoparia (KCHSC; Bassia scoparia)                   100
6       Clc1ccccc1-c1nc2ncsc2cc1Cl  Kochia scoparia (KCHSC; Bassia scoparia)                    90

Exam item: GET /values?readout=herbicidal effect KCHSC&item= `Cc1ncccc1-c1nc2ncsc2cc1Br`
Marked response: 90

Exam item: GET /values?readout=herbicidal effect KCHSC&item= `Cc1ccsc1-c1nc2ncsc2cc1Cl`
Marked response: 100

Exam item: GET /values?readout=herbicidal effect KCHSC&item= Cc1cc2scnc2nc1C12CCCCC1O2 (centres unmarked)
Marked response: 100

Exam item: GET /values?readout=herbicidal effect KCHSC&item= `CCOc1nc2nc(-c3ccccc3C)c(CC)cc2s1`
Marked response: 100

Exam item: GET /values?readout=herbicidal effect KCHSC&item= `CC(C)c1cc2scnc2nc1-c1ccccc1F`
Marked response: 90

* * *

# System: Alopecurus myosuroides (ALOMY)
# protocol-details: Herbicidal post-emergence action (D), 320 g/ha
# Assay type: in vivo
# test-settings: ca. 3 weeks
# herbicidal effect ALOMY values compiled below
Form entry: enter the amount, then its unit.

Known herbicidal effect ALOMY results, listed for orientation:
> print(dat)
                   input.smiles               value.type  observed.measurement
1       Clc1cc2scnc2nc1-c1ccsc1  herbicidal effect ALOMY                   80%
2     COc1ccccc1-c1nc2ncsc2cc1C  herbicidal effect ALOMY                   90%
3       Cc1cc2scnc2nc1-c1ccccc1  herbicidal effect ALOMY                   90%
4  Cc1cccc(F)c1-c1nc2ncsc2cc1Cl  herbicidal effect ALOMY                   80%

Let us move to another entry and its herbicidal effect ALOMY.
Exam item: Please provide the recorded herbicidal effect ALOMY for `CCc1cc2scnc2nc1-c1ccccc1` , tested on Alopecurus myosuroides (ALOMY).
Marked response: 90%

* * *

# Test system: Polygonum convolvulus (POLCO)
# protocol-details: Herbicidal post-emergence action (D), 320 g/ha
# Format: in vivo
# test-settings: ca. 3 weeks
value-type: herbicidal effect POLCO (%)
Number in %, nothing else.

> print(dat)
                   input.smiles  display.unit  observed.measurement
1  CC(C)c1cc2scnc2nc1-c1ccccc1F             %                    80
2       Fc1ccccc1-c1ccc2scnc2n1             %                    80
3     Fc1ccccc1-c1nc2ncsc2cc1Cl             %                    90
4     Fc1ccccc1-c1nc2ncsc2cc1Br             %                    90
5      Cc1ccccc1-c1nc2ncsc2cc1C             %                   100

Let us move to another entry and its herbicidal effect POLCO.
Exam item: GET /values?readout=herbicidal effect POLCO&item= `CCc1cc2scnc2nc1-c1ccc(F)cc1F`
Marked response: 90

* * *

# herbicidal activity AMARE values compiled below
# Tested on: Amaranthus retroflexus (AMARE)
# protocol-details: Herbicidal post-emergence action (B), 1280 g/ha
# Type: in vivo
# test-settings: rated visually after about 3 weeks vs untreated controls
# From the text: ABUTH: Abutilon theophrasti AGSTE: Agrostis tenuis ALOMY: Alopecurus myosuroides AMARE Amaranthus retroflexus DIGSA: Digitaria sanguinalis ECHCG: Echinochloa crus-galli KCHSC: Kochia scoparia LOLRI: Lolium rigidum MATIN: Matricaria inodora POAAN: Poa annua POLCO: Polygonum convolvulus SETVI: Setaria viridis STEME: Stellaria media VERPE: Veronica persica VIOTR: Viola tricolor […]
Number in %, nothing else.

> print(dat)
                    input.smiles                   target.entity  observed.measurement
1  Cc1cc2scnc2nc1-c1c(C)sc(C)c1C  Amaranthus retroflexus (AMARE)                   100

Exam item: GET /values?readout=herbicidal activity AMARE&item= `COc1ccccc1-c1nc2nc(SC)sc2cc1C`
Marked response: 100

Exam item: GET /values?readout=herbicidal activity AMARE&item= `N#CCc1nc2nc(-c3ccccc3F)c(Br)cc2s1`
Marked response: 90

Exam item: GET /values?readout=herbicidal activity AMARE&item= `Cc1cc2scnc2nc1-c1scnc1C`
Marked response: 90

Exam item: GET /values?readout=herbicidal activity AMARE&item= `Fc1ccccc1-c1nc2ncsc2cc1C1CC1`
Marked response: 100

Exam item: GET /values?readout=herbicidal activity AMARE&item= `Fc1cc(F)c(-c2nc3ncsc3cc2Cl)c(F)c1`
Marked response: 100

Exam item: GET /values?readout=herbicidal activity AMARE&item= `Clc1ccccc1-c1nc2ncsc2cc1Cl`
Marked response: 90

Exam item: GET /values?readout=herbicidal activity AMARE&item= `Cc1cc2scnc2nc1-c1cccc(F)c1`
Marked response: 100

Exam item: GET /values?readout=herbicidal activity AMARE&item= `CCc1cc2scnc2nc1-c1cccc(F)c1`
Marked response: 100

Exam item: GET /values?readout=herbicidal activity AMARE&item= `CCc1cc2sc(S)nc2nc1-c1ccccc1`
Marked response: 90

Exam item: GET /values?readout=herbicidal activity AMARE&item= `Cc1cscc1-c1nc2ncsc2cc1C`
Marked response: 100
